The values you see were collected from paper PMC3699901.

Target: T1, wild-type PXR LBD without the fused coactivator peptide (human, UniProt O75469 130-434)
T1 sequence (looked up): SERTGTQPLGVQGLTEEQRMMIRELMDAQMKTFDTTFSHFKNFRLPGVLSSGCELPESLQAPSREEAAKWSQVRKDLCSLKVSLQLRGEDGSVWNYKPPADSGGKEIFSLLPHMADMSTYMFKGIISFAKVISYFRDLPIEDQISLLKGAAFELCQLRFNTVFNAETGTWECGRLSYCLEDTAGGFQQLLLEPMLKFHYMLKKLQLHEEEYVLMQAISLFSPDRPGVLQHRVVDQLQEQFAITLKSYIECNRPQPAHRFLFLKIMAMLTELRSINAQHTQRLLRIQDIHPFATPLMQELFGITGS
Test: fluorescence polarisation
Ends that are not written are not given here. * marks the point of attachment. 5FAM = O=C1OC2(c3ccc(O)cc3Oc3cc(O)ccc32)c2ccc(C(=O)*)cc21
observable: Kd (nM)
Value expressed in nM; do not type the unit.

Query: Note Kd for the binder shown: 5FAM-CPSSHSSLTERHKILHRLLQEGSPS [fluorescein labeled SRC-1 peptide (5-FAM-[residues removed]), residues 676-700]
Result: 1180
